# Test system: MS2 coat protein
# protocol.details: apparent KD of MS2 coat protein; designed switch direction (-1 OFF switch, 1 ON switch): -1; higher = weaker reporter binding
# test.conditions: input ligand: FMN 200 uM
So I've got a bunch of sequences here, and I need their apparent KD of MS2 coat protein values.
All answers are understood in nM, so give the number only.

Query string: Query: apparent KD of MS2 coat protein; subject: CGUAAAAGGUAGGAUAUGCUAGACGAAAGUCUAGCAGAAGGACCUACAUGAGGAUCACCCAUGUGUCCAAUACG [Mat - Exclusion 6 - Eli Mod - D22] (Eterna round: R97, puzzle: Exclusion 6)
Result string: 50.7

Query string: Request the reported apparent KD of MS2 coat protein associated with GCGCAAACGCCAAAAGGCGAAACAACAUGAGGAUCACCCAUGUAGGAUAUCGAUUGCUUUGCAGUCGAGAAGGACAUGAUGCGC [JL ENG3 3.80 Mod 2] (Eterna round: R96, puzzle: Exclusion NG 3)
Result string: 43.9

Query string: Param item = AACAAGCUUUAAAGAUCCUACAUGAGGAUCACCCAUGUGCUCGUCUUGUAACGUACUGUGACGAAAGUCACGGUACG [JL TOV1 3.27] (Eterna round: R97, puzzle: Sensor, turn-off variant 1) ; retrieve measured apparent KD of MS2 coat protein.
Result string: 205

Query string: Report apparent KD of MS2 coat protein for GAAAGGUAAGGAUAUGCGACUACGGUGAGAUGGUUGACCUGACAUGAGGAUCACCCAUGUAGAAGGUGCUCAAU [Eternabot (L2) Solution 33] (Eterna round: R97, puzzle: Exclusion 2) please.
Result string: 67.8

Query string: Endpoint output: apparent KD of MS2 coat protein of AGCUGUGGCCGAGGAUAUACAUGAGGAUCACCCAUGUUACAUAAUUAGGCCGGGUAACCGGCUCCGUAGAAGGCGGUCUCAGCA [Eli eng2 - 004] (Eterna round: R96, puzzle: Exclusion NG 2) . Value?
Result string: 14.3

* * *

# Test system: MS2 coat protein
# protocol.details: apparent KD of MS2 coat protein; designed switch direction (-1 OFF switch, 1 ON switch): -1; higher = weaker reporter binding
# test.conditions: Eterna round: R95; input ligand: microRNA oligo, concentration not stated
measured.metric: apparent KD of MS2 coat protein (µM)
Please respond with the number in µM and leave the unit unwritten.

Query string: Entry AUAGAGUCAGGAUAUACAGGUGGAGGAAAGCAGCAUAAGGAGUAGAAGGGACAUGAGGAUCACCCAUGUAAGUG [JR_Exclu4_Sub058] (puzzle: Exclusion 4) has what apparent KD of MS2 coat protein?
Result string: 0.0623

Query string: Reported apparent KD of MS2 coat protein, sequence GUUAGACAUGAGGAUCACCCAUGUGAGGAUAUGAUGCGAUCGUGAUGAAAUGAUCGCAUCAGAAGGCACAUAUG [Mat - Mod of JL D67] (puzzle: Exclusion 1) : ____
Result string: 0.123

Query string: // lookup apparent KD of MS2 coat protein for GAUACACAUGAGGAUCACCCAUGUUAGGAUAUUAGCGGGAAAGCUGUCAGACAGUCGAUGAGAAGGAACAGGAG [Excls1-VIII] (puzzle: Exclusion 1)
Result string: 0.0293

Query string: If you can, please state the reported apparent KD of MS2 coat protein value of GAUUUAGAGCAGGAUAUCAUAGAAUUGUAUGAAUGAGAAGGGCUCACAUGAGGAUCACCCAUGUGGUCCUAGAU [JL Dibiri mod 21] (puzzle: Exclusion 6) .
Result string: 0.0217

Query string: Reported apparent KD of MS2 coat protein, sequence AAAAAGGCAGGAUAUACAUGAGGAUCACCCAUGUGAAAAAACAAAAAAAAAAAAAAAGGUAGAAGGGCCGAAAA [Science Triplets #3] (puzzle: Exclusion 3) : ____
Result string: 0.029

Query string: I'd like to know its apparent KD of MS2 coat protein. The sequence in question is AUUUAGAGAGGAUAUAUAUUGUGAAACAUGAGGAUCACCCAUGUAAUAAUAUGGAUGUAAAUAGAAGGCUCAUUUA [Mat - Exclusion 5 - JL mod - D9] (puzzle: Exclusion 5)
Result string: 0.0413

Query string: What measured apparent KD of MS2 coat protein goes with CAGUACUGAGGAUAUACAUGAGGAUCACCCAUGUGCCUAAGGUAGGAUACUACCAUUAGUAGAAGGCAGUACUG [Fiskers Ex 3 828 mod 16] (puzzle: Exclusion 3) ?
Result string: 0.0136

Query string: Quick one: apparent KD of MS2 coat protein for CUUUCGUGAGGAUAUCAGUAGUAAAUAAAUAAAAUUACUACUGAGAAGGCACAUGAGGAUCACCCAUGUUCCUU [salish99_ex3_r3_095] (puzzle: Exclusion 4) ?
Result string: 0.0129

Query string: # query: apparent KD of MS2 coat protein of entry UAAUUAAGUGUGAGGAUAUGCUGGUCCUUGGAUCAGCAGAAGGCACAUGAGGAUCACCCAUGUAAUUUAUAUAU [Mat - Exclusion 4 - JL Mod - D52] (puzzle: Brourd's mod of Exclusion 4)
Result string: 0.0855

Query string: Item under review: AUGAGACAUGAGGAUCACCCAUGUGAGGAUAUGUAUGGAUGGAGGAAAGAAUGAGAGAACAGAAGGCACGGAGG [JR_Exclu1_Sub065] (puzzle: Exclusion 1) . Reported apparent KD of MS2 coat protein?
Result string: 0.0727

Query string: Fill blank: measured apparent KD of MS2 coat protein of the sequence GGUAGAGAGCAGGAUAUCUUGGGUAAGUAUUGUAGAGAAGGGCUCACAUGAGGAUCACCCAUGUGGUCCAAGAU [JL Dibiri mod 06] (puzzle: Exclusion 6) is ____.
Result string: 0.0128
